# assay: Hydrolytic stability at 37 degrees Celsius in 50 mM phosphate buffer (20 % v/v MeCN as solubilising vehicle) at pH 7.4
# Type: physicochemical
result_type: half-life

Quick note, half-life for `CO[C@H]1C(=O)N2c3c(cn(-c4ccc([N+](=O)[O-])cc4)c3-c3ccccc3)CS(=O)(=O)[C@H]12` landed at > 125 days

----------
# assay: Hydrolytic stability at 37 degrees Centigrade in 50 mM phosphate buffer (2 % v/v MeCN as solubilising vehicle) at pH 7.4
# Assay type: physicochemical
This listing pairs compounds with measured half-life.
All answers are understood in days, so give the number only.

Example cases with answers are listed next.
| chemical_string | half-life [days] |
| --- | --- |
| CO[C@H]1C(=O)N2c3c(cn(C(=O)C(C)(C)C)c3-c3ccccc3)CS(=O)(=O)[C@H]12 | 33.3 |
| CO[C@H]1C(=O)N2c3c(csc3C(C)(C)C)CS(=O)(=O)[C@H]12 | 9.17 |
| CO[C@H]1C(=O)N2c3c(c[nH]c3-c3ccccc3)CS(=O)(=O)[C@H]12 | 23.8 |
| CO[C@H]1C(=O)N2c3c(csc3-c3ccccc3)CS(=O)(=O)[C@H]12 | 1.42 |

Now examine the next entry.
Quick note, half-life for `CO[C@H]1C(=O)N2c3c(c[nH]c3C(C)(C)C)CS(=O)(=O)[C@H]12` landed at 21.2
